tgt: 5-HT2B (Homo sapiens, UniProt P41595)
Sequence (P41595 whole entry): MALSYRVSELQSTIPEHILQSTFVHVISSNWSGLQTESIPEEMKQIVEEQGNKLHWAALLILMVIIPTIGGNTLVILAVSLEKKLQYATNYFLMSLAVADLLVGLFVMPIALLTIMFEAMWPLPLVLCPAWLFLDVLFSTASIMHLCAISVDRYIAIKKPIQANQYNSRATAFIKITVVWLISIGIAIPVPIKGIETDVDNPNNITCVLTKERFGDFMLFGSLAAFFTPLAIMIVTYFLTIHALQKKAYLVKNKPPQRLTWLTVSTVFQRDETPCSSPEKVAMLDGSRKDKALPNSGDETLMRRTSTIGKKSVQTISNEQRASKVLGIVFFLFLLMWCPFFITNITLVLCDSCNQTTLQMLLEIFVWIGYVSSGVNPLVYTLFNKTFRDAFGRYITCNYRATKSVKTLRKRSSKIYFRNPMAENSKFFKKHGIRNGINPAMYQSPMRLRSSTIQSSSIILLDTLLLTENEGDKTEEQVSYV
protocol.details: Calcium flux (FLIPR) assay, human 5-HT2B stably expressed in HEK-293 (Flp-In-293) cells
test.conditions: human 5-HT2B in HEK-293 cells, normalized to 5-HT

| compound | Emax, % 5-HT 5-HT2B |
| --- | --- |
| NCC1CC1c1c(OCCF)ccc(F)c1F (single isomer, unassigned; (-)) [(−)-Example 47] | (29%) % 5-HT |
| NCC1CC1c1c(OCCF)ccc(F)c1Cl (single isomer, unassigned; (-)) [(−)-Example 52] | (29%) % 5-HT |
| NCC1CC1c1cc(Cl)ccc1OCCF (single isomer, unassigned; (-)) [(−)-Example 19] | (31%) % 5-HT |
| NCC1CC1c1cc(Cl)ccc1OCCF (single isomer, unassigned; (+)) [(+)-Example 19] | (31%) % 5-HT |

###

tgt: human 5-HT2C-INI (Homo sapiens)
protocol.details: Calcium flux (FLIPR) assay, human 5-HT2C-INI stably expressed in HEK-293 (Flp-In-293) cells
test.conditions: EC50, nM 5-HT2C, human 5-HT2C-INI in HEK-293 cells, FLIPR; NA = no activity at 10 μM
measured.metric: EC50 (nM)
Response body: numeric value in nM, unit text excluded.

| compound | unit.string | EC50 |
| --- | --- | --- |
| NCC1CC1c1cc(F)ccc1OCCF (single isomer, unassigned; (+)) [(+)-Example 10] | nM | 3.4 |

Q: Which EC50 is reported with human 5-HT2C-INI (Homo sapiens) for this entry: CCCOc1ccc(F)c(F)c1C1CC1CN (single isomer, unassigned; (+)) [(+)-Example 48] ?
Result: 47

Q: Which EC50 is reported with human 5-HT2C-INI (Homo sapiens) for this entry: COCCOc1ccc(Cl)cc1C1CC1CN (single isomer, unassigned; (+)) [(+)-Example 17] ?
Result: 183

Q: Which EC50 is reported with human 5-HT2C-INI (Homo sapiens) for this entry: NCC1CC1c1cc(Cl)ccc1OCC(F)F (single isomer, unassigned; (-)) [(−)-Example 21] ?
Result: 914

###

tgt: human 5-HT2C-INI (Homo sapiens)
protocol.details: Calcium flux (FLIPR) assay, human 5-HT2C-INI stably expressed in HEK-293 (Flp-In-293) cells
test.conditions: human 5-HT2C-INI in HEK-293 cells, FLIPR; normalized to 5-HT
measured.metric: Emax, % 5-HT 5-HT2C

| compound | measured.metric | recorded.measurement |
| --- | --- | --- |
| C#CCOc1cc(F)c(Cl)cc1C1CC1CN (single isomer, unassigned; (+)) [(+)-Example 6] | Emax, % 5-HT 5-HT2C | (80%) % 5-HT |
| C=CCOc1ccc(Cl)cc1C1CC1CN (single isomer, unassigned; (+)) [(+)-Example 23] | Emax, % 5-HT 5-HT2C | (80%) % 5-HT |

###

tgt: human 5-HT2C-INI (Homo sapiens)
Sequence (P28335 33-458): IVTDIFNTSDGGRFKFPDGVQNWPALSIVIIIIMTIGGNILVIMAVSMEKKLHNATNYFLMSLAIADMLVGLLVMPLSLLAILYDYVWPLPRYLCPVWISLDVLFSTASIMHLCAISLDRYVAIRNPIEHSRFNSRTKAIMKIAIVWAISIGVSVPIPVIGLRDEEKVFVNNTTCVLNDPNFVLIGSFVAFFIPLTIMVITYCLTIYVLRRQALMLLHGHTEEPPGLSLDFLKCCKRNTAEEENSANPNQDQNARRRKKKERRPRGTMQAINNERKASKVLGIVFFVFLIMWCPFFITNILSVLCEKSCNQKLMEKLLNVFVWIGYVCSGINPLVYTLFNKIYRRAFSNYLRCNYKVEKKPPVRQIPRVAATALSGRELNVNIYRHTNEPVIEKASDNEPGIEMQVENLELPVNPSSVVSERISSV
protocol.details: Calcium flux (FLIPR) assay, human 5-HT2C-INI stably expressed in HEK-293 (Flp-In-293) cells
test.conditions: human 5-HT2C-INI in HEK-293 cells, FLIPR; normalized to 5-HT

| molecule | Emax, % 5-HT 5-HT2C |
| --- | --- |
| CCOc1ccc(F)c(Cl)c1C1CC1CN (single isomer, unassigned; (-)) [(−)-Example 51] | (89%) % 5-HT |
| CCCOc1cc(F)c(F)cc1C1CC1CN (single isomer, unassigned; (-)) [(−)-Example 43] | (89%) % 5-HT |

###

tgt: UniProtKB P28335
protocol.details: Calcium flux (FLIPR) assay, human 5-HT2C-INI stably expressed in HEK-293 (Flp-In-293) cells
test.conditions: EC50, nM 5-HT2C
measured.metric: EC50
// unit must come after the numeric part

Q: For the compound shown here, CCCOc1cc(F)c(F)cc1C1CC1CN (single isomer, unassigned; (-)) [(−)-Example 43] , give the reported EC50.
Result: 119 nM

###

tgt: human 5-HT2C-INI (Homo sapiens, UniProt P28335)
protocol.details: Calcium flux (FLIPR) assay, human 5-HT2C-INI stably expressed in HEK-293 (Flp-In-293) cells
test.conditions: EC50, nM 5-HT2C, human 5-HT2C-INI in HEK-293 cells, FLIPR; NA = no activity at 10 μM
measured.metric: EC50

Use these answered entries as a reference point.
| compound | recorded.measurement |
| --- | --- |
| NCC1CC1c1cc(Cl)ccc1OCCF (single isomer, unassigned; (+)) [(+)-Example 19] | 32 nM |
| C=C(F)COc1ccc(F)cc1C1CC1CN (single isomer, unassigned; (+)) [(+)-Example 9] | 22 nM |
| NCC1CC1c1cc(Cl)ccc1OCC(F)F (single isomer, unassigned; (+)) [(+)-Example 21] | 91 nM |
| COc1ccc(Cl)c(F)c1[C@@H]1C[C@H]1CN (single isomer, unassigned) [(+)-Example 29] | 13 nM |
| C#CCOc1cc(F)c(Cl)cc1C1CC1CN (single isomer, unassigned; (+)) [(+)-Example 6] | 67 nM |
| CCOc1cc(F)c(Cl)cc1C1CC1CN (single isomer, unassigned; (-)) [(−)-Example 2] | 118 nM |

Q: For the compound shown here, C=CCOc1cc(Cl)c(Cl)cc1C1CC1CN (single isomer, unassigned; (+)) [(+)-Example 35] , give the reported EC50.
Result: 61 nM

###

Overview of recorded EC50 for various compounds
tgt: human 5-HT2C-INI (Homo sapiens, UniProt P28335)
protocol.details: Calcium flux (FLIPR) assay, human 5-HT2C-INI stably expressed in HEK-293 (Flp-In-293) cells
test.conditions: read-out: EC50, nM 5-HT2C; human 5-HT2C-INI in HEK-293 cells, FLIPR; NA = no activity at 10 μM
Response body: numeric value in nM, unit text excluded.

| compound | unit.string | recorded.measurement |
| --- | --- | --- |
| COc1ccc(Cl)c(Cl)c1C1CC1CN (single isomer, unassigned; (-)) [(−)-Example 36] | nM | 0.95 |
| COc1ccc(Cl)c(F)c1C1CC1CN (single isomer, unassigned; (-)) [(−)-Example 29] | nM | 3.8 |

// next entry
Q: For the compound shown here, COc1ccc(F)c(F)c1C1CC1CN (single isomer, unassigned; (-)) [(−)-Example 45] , give the reported EC50.
Result: 16

###

Overview of recorded EC50 for various compounds
tgt: UniProt P41595
protocol.details: Calcium flux (FLIPR) assay, human 5-HT2B stably expressed in HEK-293 (Flp-In-293) cells
test.conditions: EC50, nM 5-HT2B, human 5-HT2B in HEK-293 cells, NA = no activity at 10 μM

Use these answered entries as a reference point.
| compound | tgt | EC50 |
| --- | --- | --- |
| CCOc1ccc(Cl)c(Cl)c1C1CC1CN (single isomer, unassigned; (-)) [(−)-Example 37] | UniProt P41595 | 6830 nM |
| CC(C)Oc1ccc(Cl)cc1C1CC1CN (single isomer, unassigned; (-)) [(−)-Example 14] | UniProt P41595 | 5660 nM |
| CCOc1cc(F)c(F)cc1C1CC1CN (single isomer, unassigned; (-)) [(−)-Example 41] | UniProt P41595 | 299 nM |
| CCCOc1ccc(Cl)cc1C1CC1CN (single isomer, unassigned; (-)) [(−)-Example 12] | UniProt P41595 | 3000 nM |
| C=C(C)COc1ccc(Cl)cc1C1CC1CN (single isomer, unassigned; (+)) [(+)-Example 24] | UniProt P41595 | 422 nM |
| NCC1CC1c1c(OCCF)ccc(Cl)c1Cl (single isomer, unassigned; (+)) [(+)-Example 38] | UniProt P41595 | 5520 nM |
| CCCOc1ccc(F)c(F)c1C1CC1CN (single isomer, unassigned; (+)) [(+)-Example 48] | UniProt P41595 | 4220 nM |
| CCCOc1ccc(F)cc1C1CC1CN (single isomer, unassigned; (+)) [(+)-Example 7] | UniProt P41595 | 1990 nM |

Q: For the compound shown here, CCOc1ccc(Cl)c(F)c1C1CC1CN (single isomer, unassigned; (+)) [(+)-Example 30] , give the reported EC50.
Result: 900 nM

Q: For the compound shown here, COc1ccc(F)c(F)c1[C@@H]1C[C@H]1CN (single isomer, unassigned) [(+)-Example 45] , give the reported EC50.
Result: 209 nM

Q: For the compound shown here, C=C(F)COc1ccc(Cl)cc1C1CC1CN (single isomer, unassigned; (+)) [(+)-Example 25] , give the reported EC50.
Result: 1690 nM

Numbers sourced from patent US10407381B2.
